test_target: 3-phosphoinositide-dependent protein kinase 1 (Homo sapiens, UniProt O15530)
Sequence (O15530 whole entry): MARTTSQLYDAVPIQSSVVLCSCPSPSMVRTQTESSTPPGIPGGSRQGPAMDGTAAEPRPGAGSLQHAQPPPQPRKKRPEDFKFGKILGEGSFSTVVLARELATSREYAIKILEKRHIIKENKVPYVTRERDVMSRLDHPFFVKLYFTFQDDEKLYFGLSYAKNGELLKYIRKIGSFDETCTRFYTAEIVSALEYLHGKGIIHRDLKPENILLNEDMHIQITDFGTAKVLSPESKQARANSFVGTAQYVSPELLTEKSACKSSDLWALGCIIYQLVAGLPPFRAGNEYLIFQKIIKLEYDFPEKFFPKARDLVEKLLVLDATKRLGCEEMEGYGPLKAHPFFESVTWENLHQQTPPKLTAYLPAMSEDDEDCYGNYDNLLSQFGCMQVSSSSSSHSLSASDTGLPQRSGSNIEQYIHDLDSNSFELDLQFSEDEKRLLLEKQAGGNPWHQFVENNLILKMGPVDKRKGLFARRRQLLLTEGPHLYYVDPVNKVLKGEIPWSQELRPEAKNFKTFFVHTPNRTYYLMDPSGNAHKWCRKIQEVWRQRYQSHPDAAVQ
pKd: −log10 of the molar value.
attribute_measured: pKd

Lookup: Requested field: pKd. Item: `O=C(O)Cn1c(SCCOc2ccccc2F)nc2ccccc21`
Found: < 3.70

Lookup: // pKd lookup, key: `O=C(O)Cn1c(SCCOc2ccccc2)nc2ccccc21`
Found: < 3.70

Lookup: Could you tell me which pKd is on file for `O=C(O)Cn1c(SCc2ccccc2)nc2ccccc21` ?
Found: < 3.70
